Known hERG current change (%, negative = inhibition) at 10uM of a selection of compounds
# target or system: human ether-à-go-go-related gene (hERG) potassium channel (human);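 note: peak tail current of the secondary pulse compared with the same well before compound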
# Sequence (Q12809 whole entry, looked up): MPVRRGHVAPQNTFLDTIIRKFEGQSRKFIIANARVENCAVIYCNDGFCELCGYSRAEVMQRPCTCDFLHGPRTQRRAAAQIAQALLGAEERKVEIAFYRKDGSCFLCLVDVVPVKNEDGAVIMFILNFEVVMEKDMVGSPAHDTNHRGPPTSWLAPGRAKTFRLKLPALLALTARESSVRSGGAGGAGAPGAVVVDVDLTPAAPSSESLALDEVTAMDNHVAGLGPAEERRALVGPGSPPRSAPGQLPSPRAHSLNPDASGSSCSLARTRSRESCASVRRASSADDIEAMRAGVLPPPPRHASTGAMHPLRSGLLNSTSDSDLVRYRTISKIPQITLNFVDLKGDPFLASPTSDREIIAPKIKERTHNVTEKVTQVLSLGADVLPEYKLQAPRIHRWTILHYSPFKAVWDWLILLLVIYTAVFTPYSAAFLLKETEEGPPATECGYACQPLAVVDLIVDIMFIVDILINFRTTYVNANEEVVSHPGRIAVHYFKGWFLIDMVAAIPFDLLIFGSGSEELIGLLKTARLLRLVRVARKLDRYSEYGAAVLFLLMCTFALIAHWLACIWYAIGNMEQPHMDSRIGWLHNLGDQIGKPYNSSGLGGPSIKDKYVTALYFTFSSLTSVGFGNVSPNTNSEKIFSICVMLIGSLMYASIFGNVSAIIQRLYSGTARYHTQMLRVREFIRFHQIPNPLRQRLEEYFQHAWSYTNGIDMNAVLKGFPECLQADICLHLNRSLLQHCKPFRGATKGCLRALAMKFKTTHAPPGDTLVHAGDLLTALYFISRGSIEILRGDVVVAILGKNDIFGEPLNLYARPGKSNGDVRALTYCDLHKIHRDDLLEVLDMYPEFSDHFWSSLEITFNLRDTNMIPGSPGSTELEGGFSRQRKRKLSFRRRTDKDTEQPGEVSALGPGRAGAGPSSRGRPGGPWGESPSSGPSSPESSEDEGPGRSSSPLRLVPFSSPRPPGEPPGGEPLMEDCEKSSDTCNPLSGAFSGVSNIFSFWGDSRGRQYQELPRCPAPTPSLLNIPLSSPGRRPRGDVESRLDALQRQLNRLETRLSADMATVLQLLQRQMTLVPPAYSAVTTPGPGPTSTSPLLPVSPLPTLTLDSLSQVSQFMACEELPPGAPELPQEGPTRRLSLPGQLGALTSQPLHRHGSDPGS
# procedure text: primary screen, population patch clamp on CHO cells stably expressing hERG; higher = less effect of the substance
# Protocol: Briefly, Chinese hamster ovary (CHO) cells stably expressing the hERG channel were dislodged from tissue culture flasks and dispensed into PPC plates. […] During the recording, background leak currents were estimated by a 100 ms step to -80 mV from an initial holding potential of -70 mV and subtracted from the subsequent current measurement. The campaign was conducted in two phases using slight differences in recording protocol. […]
Out of some 310,000 compounds screened, about 14,000 (4.5%) showed an effect of 50% or more. The effect is printed as a negative number. The sample as a whole holds a higher share of strong results than the screen did.
endpoint: hERG current change (%, negative = inhibition) at 10uM

compound="CC1CN(CCOc2cccc(Oc3ccccc3)c2)CC(C)O1.O=C(O)C(=O)O (stereo not drawn)" reported=5.01%
compound="COc1cc(OC)c2c(-c3ccccc3)cc(=O)oc2c1C(CCN1CCCC(C)C1)c1ccc2c(c1)OCO2 (stereo not drawn)" reported=-48.8%
compound="NC(=O)C(c1ccccn1)c1ncc(C(F)(F)F)cc1Cl (stereo not drawn)" reported=11.7%
compound=O=C(O)COc1nsnc1N1CCOCC1 reported=10.4%
compound=Cc1cccc(CN(C(=S)Nc2c(C)cccc2C)c2cccnc2)c1 reported=-9.13%
compound=Cc1cc(Cl)ccc1OCCCC(=O)NN reported=13.8%
compound=O=c1[nH]c(=O)n(-c2cccc(F)c2)c(O)c1/C=C1\C=Nc2ccccc21 reported=14%
compound="COc1ccc(C(CC(=O)N2CCCC2)c2c(OC)cc(OC)c3c(-c4ccccc4)cc(=O)oc23)cc1 (stereo not drawn)" reported=-5.46%
compound="Cc1ccc(S(=O)(=O)N(CC2CO2)c2ccccc2[N+](=O)[O-])cc1 (stereo not drawn)" reported=13.1%
compound=Cc1ccc(Nc2nnc(SCC(=O)NC3CC3)s2)cc1 reported=9.41%
compound="CC1CCCN(CCOc2cccc(Oc3ccccc3)c2)C1.O=C(O)C(=O)O (stereo not drawn)" reported=-64.7%
compound=O=C(CSCc1ccccc1Br)N/N=C/c1ccc(OCC(=O)N2CCCCC2)cc1 reported=-15.9%
compound=Cc1ccccc1-c1nc2cc(NC(=O)C3CC3)ccc2o1 reported=7.97%
compound=Cc1cc(C(F)F)n2nc(C(=O)Nc3ccc(S(=O)(=O)NC45CC6CC(CC(C6)C4)C5)cc3)nc2n1 reported=-8.28%
compound=CCc1cccc(CC)c1NC(=O)c1cccc(S(=O)(=O)N2CCN(C)CC2)c1 reported=-4.14%
compound="O=C(C1CCC(Cn2c(=O)[nH]c3ccccc3c2=O)CC1)N1CCN(c2ccccc2)CC1 (stereo not drawn)" reported=6.47%
compound=O=C(CCCOc1ccc(Cl)cc1Cl)N1CCc2ccccc2C1 reported=12%
compound=CCOC(=O)c1ccc(NC(=O)Nc2ccon2)cc1 reported=6.02%
compound=Cc1cc(Cl)ccc1OCCCC(=O)N1CCN(C)CC1 reported=-30%
compound=CCCc1cc(=O)[nH]c(SCC(=O)Nc2nc3ccc(OCC)cc3s2)n1 reported=22.8%
compound="CC(NC(=O)c1ccc(Cl)cc1)C1CC2CCC1C2 (stereo not drawn)" reported=2.08%
compound=CC(C)N(O)C(=O)NC(C)(C)C reported=11.5%
compound=CCOc1ccc(-n2c(C)nnc2SCC(=O)N(CC)CC)cc1 reported=2.63%
compound="CC(CNC(=O)c1ccc(C#N)cc1)NC(=O)c1ccc(C#N)cc1 (stereo not drawn)" reported=-76.6%
compound=C=C(C)c1cccc(C(C)(C)NC(=O)NCc2ccncc2)c1 reported=-9.41%
compound=CN1CCN(S(=O)(=O)c2cccc(C(=O)Nc3cccc(S(N)(=O)=O)c3)c2)CC1 reported=12.8%
compound="CC(NC(=O)c1cc([N+](=O)[O-])cc([N+](=O)[O-])c1)C1CC2CCC1C2 (stereo not drawn)" reported=-7.55%
compound=CCOC(=O)C1=C(CC)Nc2ccccc2N=C1NC(=O)c1oc2ccccc2c1C reported=12.6%
compound=Cc1cc(Cl)ccc1OCCCC(=O)N1CCCCC1 reported=-14.2%
compound="CCN(c1ccccc1)S(=O)(=O)c1cc(C(=O)OC(C)C(=O)Nc2ccc3c(c2)OCCO3)ccc1C (stereo not drawn)" reported=14.1%
compound="Cc1ccc(C(=O)NC(C)C2CC3CCC2C3)cc1 (stereo not drawn)" reported=19.1%
compound=Cc1cc(Cl)ccc1OCC(=O)N1CCCCC1 reported=-0.846%
compound=Cc1cc2nc(-c3ccco3)cc(C(F)(F)F)n2n1 reported=-5.82%
compound=O=C(Nc1ccccc1)c1cccc(S(=O)(=O)N2CCCCC2)c1 reported=0.607%
compound="CCOC(=O)C1=C(C)OC(N)=C(C#N)C1c1cc(OC)c2c(c1)OCO2 (stereo not drawn)" reported=-20.6%
compound="CCC1=C(C)CN(C(=O)NCCc2ccc(S(=O)(=O)NC(=O)NC3CCC(C)CC3)cc2)C1=O (stereo not drawn)" reported=-13.5%

---

Known hERG current change (%, negative = inhibition) at 10uM of a selection of molecules
# target or system: human ether-à-go-go-related gene (hERG) potassium channel (human);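 note: peak tail current of the secondary pulse compared with the same well before compound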
# procedure text: primary screen, population patch clamp on CHO cells stably expressing hERG; higher = less effect of the substance
About 14,000 (4.5%) of roughly 310,000 compounds showed an effect of 50% or more. Effects have a minus sign here. What follows is part of a selection rich in strong results, with near analogues and random picks from the rest.
endpoint: hERG current change (%, negative = inhibition) at 10uM (%)

molecule=CCCCn1c(SCC(=O)Nc2ccc(NC(C)=O)cc2)nc2ccccc2c1=O reported=-2.55
molecule="O=C(CCCn1c(SCC(=O)Nc2ccccc2Cl)nc2ccccc2c1=O)NCC1CCCO1 (stereo not shown)" reported=-48.9
molecule=CC1CCN(CCCn2c(SCC(=O)Nc3ccccc3Cl)nc3ccccc3c2=O)CC1 reported=-70.8
molecule=CCc1ccc(NC(=O)CSc2nc3ccccc3c(=O)n2CCCC(=O)N2CCCC2)cc1 reported=-27.9

---

Known hERG current change (%, negative = inhibition) at 10uM of a selection of molecules
# target or system: human ether-à-go-go-related gene (hERG) potassium channel (human);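 note: peak tail current of the secondary pulse compared with the same well before compound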
# procedure text: primary screen, population patch clamp on CHO cells stably expressing hERG; higher = less effect of the substance
Hit rate of the full screen: of about 310,000 compounds, about 14,000 (4.5%) showed an effect of 50% or more. The effect is printed as a negative number. Shown is part of a subset that was picked to be rich in strong results.
endpoint: hERG current change (%, negative = inhibition) at 10uM (%)

molecule="C=CCSc1nnc2c(n1)OC(c1ccco1)Nc1ccccc1-2 (stereo not drawn)" reported=-7.61
molecule=O=C(Nc1cccnc1)c1cc([N+](=O)[O-])ccc1Cl reported=-0.51
molecule=Cc1cccc(N2CCc3c2nc2ccc(Br)cc2c3N)c1.Cl reported=6.56
molecule=Cc1ccc(-n2c(=O)[nH]c3c(C(N)=O)nc(CC(C)C)nc32)cc1 reported=4.8
molecule="Cc1oc(-c2ccccc2)nc1CS(=O)CC(=O)N1CCc2ccccc2C1 (stereo not drawn)" reported=-20.5
molecule=Nc1c2c(nc3cccc(Cl)c13)N(c1ccccc1)CC2 reported=31.7
molecule="CCOc1cccc(SCc2noc(C(=O)NCC3CCCO3)c2C(=O)O)c1 (stereo not drawn)" reported=32.2
molecule="Cc1cccc(-c2ncc(CN3CCN(CC(C)C)C(CCO)C3)cn2)c1 (stereo not drawn)" reported=-47.9
molecule=Cc1ccc(-c2nc(CS(=O)(=O)CC(=O)N3CCc4ccccc4C3)c(C)o2)cc1 reported=-16
molecule=Cc1cccc(N2CCc3c2nc2ccccc2c3N)c1.Cl reported=-61.9
molecule=COc1cc(CN2CCC(C(=O)NCC(C)(C)CN(C)C)CC2)ccc1OCc1ccccc1.O=C(O)C(=O)O reported=13.6
molecule=Cc1cc(C)c(N=Cc2c(O)[nH]c(=O)[nH]c2=O)c(C)c1 reported=11.6

---

Known hERG current change (%, negative = inhibition) at 10uM of a selection of compounds
# target or system: human ether-à-go-go-related gene (hERG) potassium channel (human);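 note: peak tail current of the secondary pulse compared with the same well before compound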
# procedure text: primary screen, population patch clamp on CHO cells stably expressing hERG; higher = less effect of the substance
About 14,000 (4.5%) of roughly 310,000 compounds showed an effect of 50% or more. Effects have a minus sign here. The list comes from a sample in which strong results are over-represented; it also holds close analogues and randomly drawn compounds.
endpoint: hERG current change (%, negative = inhibition) at 10uM

compound="CC1=C(C#N)C(c2ccccc2)C2=C(N1)c1ccccc1C2=O (stereo not drawn)" reported=1.22%
compound=O=C1OCCN1C(=O)[C@H]1[C@H](c2ccc(Cl)cc2)C(c2cccc(Cl)c2)=NN1c1ccccc1 reported=14%
compound="Cc1ccccc1N1CCN(C(=O)C2CCC(=O)N(C3CCCC3)C2)CC1 (stereo not drawn)" reported=-22.5%
compound=COc1ccccc1CNC(=O)N1CCN(c2ccccc2C)CC1 reported=6.36%
compound="CCN(CCN1CCCC1)C(=O)C1CCC(=O)N(CCCN2CCOCC2)C1 (stereo not drawn)" reported=12.8%
compound=COc1ccccc1NS(=O)(=O)c1cc2c(cc1C)NC(=O)CO2 reported=-7.43%
compound=Cc1cc(C)c(-n2c(C)cc(/C=C3/NC(=O)NC3=O)c2C)c(C)c1 reported=-9.75%
compound="Cc1cccc(N2CCN(C(=O)C3CC(=O)N(C4CCCC4)C3)CC2)c1C (stereo not drawn)" reported=-57.9%
compound=CCN(CC)C(=O)C1CCN(Cc2ccc(Br)cc2)CC1.O=C(O)C(=O)O reported=-51.4%
compound="C/C(=N\\NC(=O)C(C)Sc1ccccc1)c1ccc([N+](=O)[O-])cc1 (stereo not drawn)" reported=-3.27%
compound=COc1ccc(Cl)cc1Nc1nc(-c2cccnc2)cs1 reported=5.19%
compound=Cc1ccc(S(=O)(=O)N2CCN(c3cc4c(cc3[N+](=O)[O-])n(C)c(=O)n4C)CC2)cc1 reported=-4.2%
compound=COc1ccc(-c2cc(COc3ccccc3)on2)cc1 reported=36.1%
compound=COc1ccc(C[C@@H]2CN3C(=NC[C@@H]3C)N2C[C@H](C)NC(=O)c2ccc(C)c(Br)c2)cc1 reported=-74.8%
compound=Cn1c(CNC(=O)OC(C)(C)C)nnc1SCC(=O)N1CCOCC1 reported=8.91%
compound=CCN(CC)C(=O)C1CCN(Cc2ccc(OCc3ccccc3)c(OC)c2)CC1.O=C(O)C(=O)O reported=-32%
compound=CC(=O)Nc1ccc(S(=O)(=O)N2CCN(c3nc(C)cc(C)n3)CC2)cc1 reported=5.68%
compound="O=C(OCc1nnc(-c2ccc([N+](=O)[O-])cc2)o1)C1CC(=O)N(CCc2ccccc2)C1 (stereo not drawn)" reported=-61.7%
compound=C/C(=N\NC(=O)c1cccc(N/N=C(\C)c2ccc([N+](=O)[O-])cc2)c1)c1ccc([N+](=O)[O-])cc1 reported=1.39%
compound=COc1ccc(OC)c(C2=NS(=O)(=O)N(C)C(C(=O)NCc3cccs3)=C2)c1 reported=-28%
compound="Cc1noc(C)c1CCC(=O)N1CCCC(N2CCN(c3ccc(F)cc3)CC2)C1 (stereo not drawn)" reported=-53.4%
compound="Cc1c(C(c2ccc(F)cc2)c2c(O)c3ccccc3oc2=O)c(=O)n(-c2ccccc2)n1C (stereo not drawn)" reported=-20.9%
compound="CSCC(=O)N1CCCC(N2CCN(c3ccc(F)cc3)CC2)C1 (stereo not drawn)" reported=-22.9%
compound="CCN(CC)C(=O)C1CCCN(Cc2ccc(N(C)C)cc2)C1 (stereo not drawn)" reported=-12.5%
compound="O=C(C1CCC(=O)N(C2CCCC2)C1)N1CCC(Oc2ccccc2Cl)CC1 (stereo not drawn)" reported=-62.1%
compound=O=C(C1CCN(Cc2ccc(F)cc2)CC1)N(CCO)Cc1ccccc1 reported=-10.6%
compound=COc1ccc(C2=NS(=O)(=O)N(C)C(C(=O)NCc3ccccn3)=C2)cc1 reported=-33.9%
compound=CCN(Cc1ccccc1)C1CCN(Cc2ccc(SC)cc2)CC1.O=C(O)C(=O)O reported=-69.3%
compound=COC(=O)c1c(NC(=O)CSc2nccn2C)sc(C)c1C reported=-15.8%
compound="Cc1cccc(N2CCN(C(=O)C3CCC(=O)N(C4CC4)C3)CC2)c1C (stereo not drawn)" reported=0.967%
